- PROTOCOL_NOTES: chemical genetic growth profiling, strain panel (AID 1159580);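 note: tested at 20 µM; growth read once vehicle control cultures reached saturation at 30 °C; 1 = growth at the plate median or of vehicle wells; lower values mean less growth of the strain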
- TEST_CONTEXT: S. cerevisiae deletion strains, growth OD, locus YGL086W, strain mad1, active compounds read low
Out of some 5,500 compounds screened, about 2,000 (36%) were called active. Not shown: some 18% with an inconclusive outcome. The list shows a part of the results.
# Lookup of reported normalized growth keyed by entry
Enter the number alone.

Consider the reported normalized growth for these compounds:
COMPOUND: CC1CC2C3CC(F)C4=CC(=O)C=CC4(C)C3(F)C(O)CC2(C)C1(O)C(=O)CO (centres undefined)
ENDPOINT_NAME: normalized growth
MEASUREMENT: 1.04
//
COMPOUND: CC1=C(CC(=O)O)c2cc(F)ccc2/C1=C\c1ccc(S(C)=O)cc1 (centres undefined)
ENDPOINT_NAME: normalized growth
MEASUREMENT: 1.01
//
COMPOUND: ClC1=C(Cl)C2(Cl)C3C(Cl)C=CC3C1(Cl)C2(Cl)Cl (centres undefined)
ENDPOINT_NAME: normalized growth
MEASUREMENT: 0.99

Value of measured normalized growth for the entry COc1ccc2c3c1O[C@H]1C[C@@H](O)C=C[C@@]31CCN(C)C2 : 1.04

Record CN1CCC(=C2c3ccccc3CC(=O)c3sccc32)CC1 , field normalized growth: 0.994

Value of normalized growth reported for the compound O=C1C=CC(=C(c2ccc(O)cc2)c2ccc(O)cc2)C=C1 is 0.986

Reported normalized growth for CC1CC2C3CCC4=CC(=O)C=C[C@]4(C)[C@@]3(F)[C@@H](O)C[C@]2(C)[C@@]1(O)C(=O)CO (some centres undefined) was 0.98

ClC1=C(Cl)C2(Cl)C3C4C=CC(C4)C3C1(Cl)C2(Cl)Cl (centres undefined) has a reported normalized growth of 0.967

// recorded normalized growth for CN(C)c1ccc(C(=C2C=CC(=[N+](C)C)C=C2)c2ccc(N(C)C)cc2)cc1 : 0.406
